target-system: Calmodulin-1 (Homo sapiens) (UniProt P0DP23)
assay-procedure: small molecules binding Ca-loaded calmodulin-1 – biochemical, small-molecule microarray, Cy5-labelled CALM1, plus calcium, artefact control for SMM control-protein annotation, profiling panel (AID 1112);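 note: score merges spot fluorescence with signal to noise from triplicate slides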
measurement-context: Cy5-CALM1 binding fluorescence, higher = more signal
reported-endpoint: composite z-score
// keep it numeric: no unit symbol after the value

Take a look at these entries with their results.
COCCOC(=O)N1C(=O)[C@@]2(c3cc(C#CC4=CCCCC4)ccc31)[C@H](C(N)=O)[C@H]1C(=O)O[C@H](c3ccccc3)[C@H](c3ccccc3)N1[C@@H]2c1ccc(O)cc1 = -0.308
CCCCCCc1nc(-c2ccc(-c3ccc(Cl)c(Cl)c3)o2)cc2c1[Si](C(C)C)(C(C)C)O[C@H]2c1ccccc1 = 0.077
CC(c1ccccc1)C(O)C1C=CC2C(=O)N(C)C(=O)C2N1NC(=O)OC(C)(C)C (stereo unspecified) = 0.265
COC(=O)c1c2oc(c1C(=O)OC)C(=O)N[C@@H](C(C)C)Cn1cc(nn1)C1(CCCCC1)NC(=O)N[C@H](CO)CC2 = -0.403
Cc1ccc([C@H]2C(C(=O)O)=CCN2S(=O)(=O)c2ccc(C)cc2)cc1 = 0.261

Q) # returns recorded composite z-score (system: Calmodulin-1 (Homo sapiens) (UniProt P0DP23)) for C=CCNC(=O)[C@@H]1[C@H]2C(=O)O[C@H](c3ccccc3)[C@H](c3ccccc3)N2[C@H](c2ccc(OCCO)cc2)[C@@]12C(=O)N(C(=O)OCCOC)c1ccc(C#CCNC(N)=O)cc12
A) 0.386

---

Tested on: Human papillomavirus type 1a protein E7 (residues 44-93)
assay-procedure: small molecules binding HPV E7 44-93 – biochemical, small-molecule microarray, residues 44-93, 635 nm fluorescence, primary screen (AID 1108);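 note: E7 fragment applied at 1 µg/mL in TBST for 1 h at 4 C; score combines spot fluorescence with its signal to noise ratio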
measurement-context: fluorescence 635 nm, higher = more signal
reported-endpoint: composite z-score
Answer with a number only.

CCOC(=O)[C@H]1C/C=C/C[C@H](C(=O)OCC)C(=O)O[C@H]2[C@@H](OC)O[C@H](CO)[C@@H](OC(=O)c3ccc(Br)cc3)[C@@H]2OC1=O = 0.215

Q) Please provide the recorded composite z-score for C=CC[C@@]1(C(=O)N2CCCCC2)N=C(c2ccc(OCCCO)cc2)O[C@@H]1c1ccccc1N=[N+]=[N-] , tested on Human papillomavirus type 1a protein E7 (residues 44-93).
A) 1.46

Q) GET /values?readout=composite z-score&system=Human papillomavirus type 1a protein E7 (residues 44-93)&item= C=CCNC(=O)[C@H]1[C@@H]2C(=O)O[C@@H](c3ccccc3)[C@@H](c3ccccc3)N2[C@@H](c2ccc(O)cc2)[C@]12C(=O)Nc1ccc(C#CCCO)cc12
A) -0.336

Q) Which measured composite z-score belongs to CCCCCCc1nc(-c2ccc(-c3ccc(Cl)c(Cl)c3)o2)c(C)c2c1[Si](C(C)C)(C(C)C)OC2 , tested on Human papillomavirus type 1a protein E7 (residues 44-93)?
A) -0.121

Q) Identify the measured composite z-score of COc1ccc(NC(=O)O[C@H]2[C@H](OC(=O)c3cc4ccccc4[nH]3)[C@@H](OC(=O)c3cc4ccccc4[nH]3)[C@@H](OC)O[C@@H]2CO)cc1 for Human papillomavirus type 1a protein E7 (residues 44-93).
A) -0.548

Q) Find the measured composite z-score: item COC(=O)[C@]1(Cc2ccccc2)N=C(c2ccc(OCCCO)cc2)O[C@@H]1c1ccccc1N=[N+]=[N-] , target or system Human papillomavirus type 1a protein E7 (residues 44-93).
A) 1.33

Q) Query for Human papillomavirus type 1a protein E7 (residues 44-93): what composite z-score does the record show for COCC(=C=CC[C@H](O)c1cccc(OCCO)c1)C[C@H](O)c1cc(Cl)cc(Cl)c1O ?
A) 1.37

---

target-system: Torsin-1A (Homo sapiens)
assay-procedure: TOR1A wild-type binding on microarray – cell lysate, small-molecule microarray, lysate, 635/667 nm, primary screen (AID 1149)
measurement-context: COS7 hTOR1A-WT lysate, 635 nm fluorescence, higher = more signal
reported-endpoint: composite z-score
Answer field: number only, no words.

Take a look at these entries with their results.
COC(=O)c1c(CC[C@@H](CO)NC(=O)N[C@@H](Cc2ccccc2)Cn2cc(-c3ccccn3)nn2)oc(C(=O)N2CCOCC2)c1C(=O)OC = -0.481
CCOc1ccc(N2C(=O)CSC2c2cccc([N+](=O)[O-])c2)cc1 (stereo not given) = 0.331
COC(=O)[C@@]1(Cc2ccc(F)cc2)[C@H]2c3cc(C(=O)N(C)C)n(Cc4cc(C)n(C)n4)c3C[C@H]2CN1C(=O)c1ccccc1 = 0.149

Q) Consider the compound COC(=O)c1c(CC[C@@H](CO)NC(=O)N[C@H](Cc2ccccc2)Cn2cc(-c3ccccn3)nn2)oc(C(C)=O)c1C(=O)OC and give its measured composite z-score.
A) 0.813

Q) Look up composite z-score: C[N+](C)(C)CCCCCCNC(=O)[C@H]1C[C@H]2C(=O)N[C@@H](Cc3ccccc3)C(=O)N2[C@H]1c1cccc(OCCO)c1
A) 1.12

Q) So what does the record say about composite z-score for O=C1[C@H]2C=C(I)[C@H](C[C@@H]2OCCCCO)[C@@]12CO2 ?
A) 0.953

---

target-system: NADPH oxidase 2 (Homo sapiens)
assay-procedure: compounds shifting NOX2 Amplex Red fluorescence – cell-based, HEK293-NOX2, PMA-stimulated, NOX inhibitor project, primary screen (AID 1159); note: test concentration not given here
measurement-context: 45 min, higher = more signal, called active from +8 up or from −8 down
reported-endpoint: z-score
API doc: respond with a numeric literal and nothing else, no unit.

The following compounds have reported results that may help.
CC(C)[Si](C#C[Si](C(C)C)(C(C)C)C(C)C)(O[C@H](C)c1cn(Cc2ccccc2)nn1)C(C)C = 0.667
[N-]=[N+]=NCc1ccccc1[C@@H]1OC(c2ccc(OCCCO)cc2)=N[C@]1(CCS(=O)(=O)c1ccccc1)C(=O)N1CCCCC1 = 0.196

Q) Value wanted: z-score (NADPH oxidase 2 (Homo sapiens)) of entry C=C(C)[C@@H]1CC=C(C(O)C2C=CC3C(=O)NC(=O)C3N2Nc2ccc(Cl)cc2Cl)CC1 (some centres undefined)
A) -2.38

Q) Field: z-score (NADPH oxidase 2 (Homo sapiens)). Entry: CCCC=C(CCC)[C@@H](NC(=O)OCC(C)C)c1ccccc1
A) -4.11

---

target-system: Carbonic anhydrase 2 (Homo sapiens) (UniProt P00918)
assay-procedure: compounds binding carbonic anhydrase 2 – biochemical, small-molecule microarray, Alexa647-labelled CAII, profiling panel (AID 1122)
measurement-context: CAII-A647 binding fluorescence, higher = more signal
reported-endpoint: composite z-score
A bare number is all that is needed in reply.

Completed entries (count: 3):
CC(C)OC(=O)C=C1C[C@@H](c2cccc(Cl)c2)O[C@@H](c2cccc(Cl)c2)O1 = 0.299
C=C(C(=O)CC[C@H](OC(C)=O)c1ccccc1OCCO)C(C)C = -0.371
CCOC(=O)C1=CCC(c2ccc(F)cc2)N(S(=O)(=O)c2ccc(C)cc2)C1 (configuration not stated) = 0.397

Q) Report composite z-score for CC(=O)Nc1cc(Br)ccc1C(=O)NCc1ccccc1 please.
A) 0.23

Q) Fill in: composite z-score of C=CCN1C(=O)[C@]2(Cc3ccccc3)N=C(c3ccc(OCCCO)cc3)O[C@@H]2c2ccccc21 is ___
A) 0.414

Q) Given CC(=O)n1cc(C(O)C2C=CC3C(=O)NC(=O)C3N2Nc2ccccn2)c2ccccc21 (configuration not stated) , state its recorded composite z-score.
A) 0.817

Q) Recorded composite z-score for O=C1C2C=CC(C(O)c3ccc4c(c3)OCO4)N(Nc3ccc([N+](=O)[O-])cc3)C2C(=O)N1c1ccccc1 (configuration not stated) , please?
A) 0.699

---

System: PRMT1 (protein arginine N-methyltransferase 1)
assay-procedure: small molecules binding arginine methyltransferase PRMT1 – biochemical, small-molecule microarray, 635 nm fluorescence, primary screen (AID 1088);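 note: binding of Prmt1 protein to compounds spotted on small-molecule microarray slides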
measurement-context: higher = more signal
reported-endpoint: composite z-score
No unit in the answer, please; the number alone is enough.

Here is how some compounds turned out for composite z-score.
C=C[C@H](C)[C@@H](OC(=O)Nc1ccc(SC)cc1)c1ccc(O)c2ccccc12 = 1.28
Cc1ccc(S[C@]2(C(=O)O)CC(=O)N(Cc3ccccc3C(F)(F)F)[C@@H]2c2ccc(CO)cc2I)cc1 = 0.471
CC=CC(O)C1C=CC2C(=O)N(C)C(=O)C2N1N(c1ccccc1)c1ccccc1 (centres undefined) = 0.344
C=CCOC(=O)[C@H]1[C@@H]2C(=O)O[C@@H](c3ccccc3)[C@@H](c3ccccc3)N2[C@@H](c2ccc(OCCOC(=O)[C@H]3C[C@H]4C(=O)N[C@@H](CCCCN(C)C)C(=O)N4[C@H]3c3cccc(OCCO)c3)cc2)[C@]12C(=O)Nc1ccc(I)cc12 = 1.54
COC(=O)C(CC#Cc1ccc2c(c1)[C@]1(C(=O)N2)[C@H](c2ccccc2OCCO)N2[C@H](c3ccccc3)[C@H](c3ccccc3)OC(=O)[C@H]2[C@@H]1C(N)=O)C(=O)OC = 1.27
CN1C(=O)C2C=CC(C(O)c3c(F)cccc3Cl)N(NC(=O)OC(C)(C)C)C2C1=O (centres undefined) = 1.3
NC(=O)[C@@H]1[C@H]2C(=O)O[C@H](c3ccccc3)[C@H](c3ccccc3)N2[C@H](c2ccc(OCCO)cc2)[C@@]12C(=O)Nc1ccc(C#CC3=CCCCC3)cc12 = 1.55
C=CCN1Cc2ccccc2[C@@H]2OC(c3ccc(OCCCO)cc3)=N[C@]2(CCS(=O)(=O)c2ccccc2)C1=O = 1.55

Q) Lookup: composite z-score / PRMT1 (protein arginine N-methyltransferase 1) / CCOC(=O)C[C@H]1[C@H](OC(=O)c2ccc(C(=O)c3ccccc3)cc2)[C@@H](NC(=O)Cc2ccc(OC)cc2)c2cc(OCCCO)ccc2N1C(=O)c1ccc2ccccc2n1
A) 0.794

Q) API: value(readout=composite z-score, system=PRMT1 (protein arginine N-methyltransferase 1)) for record COCCOC(=O)N1C(=O)[C@@]2(c3ccccc31)[C@H](C(N)=O)[C@H]1C(=O)O[C@H](c3ccccc3)[C@H](c3ccccc3)N1[C@@H]2c1ccc(O)cc1
A) 1.38

Q) Any idea what composite z-score came out for O=C1OCCC/C=C\[C@H]2OC34C=CCN(c5ccc6ccccc6c5)C(=O)[C@H]3N(CCCCCO)C(=O)[C@@H]4C12 (some centres undefined) on PRMT1 (protein arginine N-methyltransferase 1)?
A) -1.23

Q) What measured composite z-score is associated with CCOC(=O)C[C@H]1[C@H](OC(=O)c2ccc(C(=O)c3ccccc3)cc2)[C@@H](NC(=O)c2ccccc2)c2cc(OCCCO)ccc2N1C(=O)c1ccccc1 on PRMT1 (protein arginine N-methyltransferase 1)?
A) 0.844

Q) // lookup composite z-score | system=PRMT1 (protein arginine N-methyltransferase 1) | key= CC(c1ccccc1)C(O)C1C=CC2C(=O)N(C)C(=O)C2N1NC(=O)OC(C)(C)C (centres undefined)
A) 1.39

Q) Request - read-out composite z-score | tested on PRMT1 (protein arginine N-methyltransferase 1) | compound Cc1ccc(/C=C/C=O)cc1
A) -0.379
